From: the supplement of paper PMC10702517

Assay: chemical recovery by SPE of plasma after PDMS sampling; higher = better extraction
Details: pooled human plasma; extraction method: HLB SPE of plasma after PES; equilibration time (d): 3
The entries below come with measured chemical recovery by SPE of plasma values attached.
# output: bare number, implied unit %

# chemical recovery by SPE of plasma lookup, item O=Cc1ccccc1Nc1ccccc1Cl
0.276

Entry CC(C)c1ccc(NC(=O)N(C)C)cc1 has what chemical recovery by SPE of plasma?
5.5

====

Experiment: chemical recovery from spiked human plasma; higher = better extraction
Conditions: pooled human plasma; extraction method: PES+SPE (3 d PDMS equilibration then HLB SPE)
Binning of chemical recovery into classes: lower range (below 30%), middle range (30% to below 60%), upper range (60% or more)

molecule: Clc1ccc2c(c1)CCc1cccnc1C2=C1CCNCC1
label.value: lower range
//
molecule: NC(=O)C1(N2CCCCC2)CCN(CCCC(=O)c2ccc(F)cc2)CC1
label.value: lower range

Bin this entry: C#CCN1C(=O)COc2cc(F)c(N3C(=O)C4=C(CCCC4)C3=O)cc21
middle range

Hi there! Could you help me figure out the category for CC(C)NCC(O)COc1ccc(COCCOC(C)C)cc1 (centres undefined) please?
lower range

Band of COc1cc(O)c(C(=O)c2ccccc2)cc1S(=O)(=O)O ?
middle range

====

Assay: chemical recovery from spiked human plasma; higher = better extraction
Settings: pooled human plasma; extraction method: PES+SPE (3 d PDMS equilibration then HLB SPE)
Measured chemical recovery, listed per entry for reference.
Write down the numeric answer in % and omit the unit.

For orientation, consider the following solved cases.
compound: CC[N+](CC)(CC(=O)Nc1c(C)cccc1C)Cc1ccccc1
chemical recovery, %: 50.8
//
compound: Cc1nccc2c1[nH]c1ccccc12
chemical recovery, %: 36.2
//
compound: CC(C(=O)O)c1cccc(C(=O)c2ccccc2)c1 (stereo not given)
chemical recovery, %: 56.1

Query (compound): CCNc1nc(Cl)nc(NC(C)C)n1 ; field requested: chemical recovery
43.7

Which chemical recovery value is on record for Cc1c(Br)c(Br)c(C)c(Br)c1Br ?
83.9

So what's the measured chemical recovery for this one? O=C(CC(C(=O)OC1CCCCC1)S(=O)(=O)O)OC1CCCCC1 (stereo not given) [Dicyclohexyl sulfosuccinate]
37.7

# input compound: COCC(C)N(C(=O)CCl)c1c(C)csc1C (stereo not given) ; wanted: its chemical recovery
59.7

For Cc1cc(=O)oc2cc(N)ccc12 , what is its reported chemical recovery?
42.6

Give the measured chemical recovery of O=C(O)c1cc(Oc2ccc(Cl)cc2Cl)ccc1[N+](=O)[O-] [Bifenox free acid] .
38.2

Which chemical recovery reading was recorded for the compound O=C(c1ccccc1)c1ccc(O)cc1O [2,4-Dihydroxybenzophenone] ?
53.8

====

# maps each entry to its chemical recovery
Assay: chemical recovery from spiked human plasma; higher = better extraction
Settings: pooled human plasma; extraction method: solvent precipitation (ACN + hexane)
Form entry: value (%) — number only.

Before answering, review these 5 worked examples.
compound: CC(C)N(C(=O)SCC(Cl)=C(Cl)Cl)C(C)C [Triallate]
property: chemical recovery
quantitative.readout: 76.8
//
compound: CC(Cc1ccc(C(C)(C)C)cc1)CN1C[C@@H](C)O[C@@H](C)C1 (stereo not given in full) [Fenpropimorph]
property: chemical recovery
quantitative.readout: 80.2
//
compound: O=C(Nc1ccccc1-c1ccc(Cl)cc1)c1cccnc1Cl [Boscalid]
property: chemical recovery
quantitative.readout: 81.6
//
compound: CCOc1nc2cccc(C(=O)O)c2n1Cc1ccc(-c2ccccc2-c2nnn[nH]2)cc1 [Candesartan]
property: chemical recovery
quantitative.readout: 58.8
//
compound: CNC(=O)Oc1cccc(/N=C/N(C)C)c1 [Formetanate]
property: chemical recovery
quantitative.readout: 2.27

Would you mind telling me what chemical recovery value was observed for CCCOC(=O)NCCCN(C)C [Propamocarb] ?
54.9

# query: chemical recovery of entry O=C(NCCc1ncc(C(F)(F)F)cc1Cl)c1ccccc1C(F)(F)F [Fluopyram]
67.8

I am curious: what chemical recovery value has been reported for CC(C)Oc1cccc(NC(=O)c2ccccc2C(F)(F)F)c1 [Flutolanil] ?
60.8

Look up chemical recovery for this compound: CC(=O)CCc1ccc(O)cc1 [4-(4-Hydroxyphenyl)butan-2-one]
64.5

Any idea what its chemical recovery is? The compound is COc1nc(C)nc(NC(=O)NS(=O)(=O)c2ccccc2Cl)n1 [Chlorosulfuron]
67.9

Which value of chemical recovery has been reported for CCc1cccc(C)c1N(C(=O)C(=O)O)C(C)COC (stereo not given) [Metolachlor OA] in the records?
73.7

Request the reported chemical recovery associated with COCN(COC)c1nc(N(COC)COC)nc(N(COC)COC)n1 [Hexa(methoxymethyl)melamine]
72.5

// lookup chemical recovery for CC(c1ccc(O)cc1)(c1ccc(O)cc1)c1ccc(O)cc1 [1,1,1-Tris(4-hydroxyphenyl)ethane]
43.3
